Data provenance: patent US8067445B2

system: human DP1 receptor (Homo sapiens, UniProt Q13258)
Construct: tissue Biological Specialty Corporation; host or cells: human platelet membranes
Sequence (Q13258 whole entry): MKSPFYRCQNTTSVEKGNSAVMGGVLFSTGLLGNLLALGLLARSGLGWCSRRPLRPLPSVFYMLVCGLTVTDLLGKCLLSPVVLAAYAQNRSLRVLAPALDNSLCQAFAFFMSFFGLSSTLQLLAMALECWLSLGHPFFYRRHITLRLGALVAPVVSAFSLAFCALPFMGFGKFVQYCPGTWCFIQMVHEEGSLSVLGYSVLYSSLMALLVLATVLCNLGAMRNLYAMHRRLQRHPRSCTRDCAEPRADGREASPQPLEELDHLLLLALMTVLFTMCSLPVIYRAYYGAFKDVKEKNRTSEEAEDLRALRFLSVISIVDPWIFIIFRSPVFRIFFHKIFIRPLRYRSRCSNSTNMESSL
procedure summary: DP1 radioligand binding assay ([3H]BWA868C, platelet membranes)
recorded conditions: [3H]BWA868C binding, human platelet membranes; read-out: hDP1
Below, each entry is listed with its recorded IC50.

Here is how some compounds turned out for IC50.
Exercise: Look up IC50 with human DP1 receptor (Homo sapiens, UniProt Q13258) for this compound: CCN(Cc1cc(NS(=O)(=O)c2ccc(Cl)cc2)ccc1-c1cc(CC(=O)O)ccc1OC)C(=O)OCc1ccccc1
Key: 1 to 30 µM

Exercise: Also CCN(Cc1cc(C(F)(F)F)ccc1-c1cc(CC(=O)O)ccc1OC)C(=O)OCc1ccccc1 ?
Key: 1 to 30 µM

Exercise: Also COc1ccc(CC(=O)O)cc1-c1ccc(C(F)(F)F)cc1CN(CCO)C(C)=O ?
Key: 1 to 30 µM

Now, please, on to the next compound.
Exercise: Look up IC50 with human DP1 receptor (Homo sapiens, UniProt Q13258) for this compound: CCN(Cc1cc(C(F)(F)F)ccc1-c1cc(Cl)cc(CC(=O)O)c1)C(C)=O
Key: 1 to 30 µM
